- Test system: bovine microtubule-associated protein (MAP)-rich tubulin
- Format: biochemical
- DETAILS: 0.3 uM
EXPERIMENTAL ENDPOINT: Tubulin Polym. % inhibition at 0.3 uM

CN[C@H](C(=O)N[C@H](C(=O)N(C)[C@H](/C=C(\C)C(=O)N1CC=C[C@H]1C(=O)O)C(C)C)C(C)(C)C)C(C)(C)c1ccccc1: 91(2) %
CN[C@H](C(=O)N[C@H](C(=O)N(C)[C@H](/C=C/P(=O)(OC)OC)C(C)C)C(C)(C)C)C(C)(C)c1ccccc1: 45%
CN[C@H](C(=O)N[C@H](C(=O)N(C)[C@H](/C=C(\C)C(C)=O)C(C)C)C(C)(C)C)C(C)(C)c1ccccc1: 69%

Query: Record `CN[C@H](C(=O)N[C@H](C(=O)N(C)[C@H](/C=C1/C(=O)NC(=O)N1C)C(C)C)C(C)(C)C)C(C)(C)c1ccccc1` : what is its Tubulin Polym. % inhibition at 0.3 uM with bovine microtubule-associated protein (MAP)-rich tubulin?
Response: 95%

Query: Record `CN[C@H](C(=O)N[C@H](C(=O)N(C)[C@H](/C=C(\C)C(=O)N1CCC[C@H]1[C@H](OC)[C@@H](C)C(=O)N[C@@H](Cc1ccccc1)c1nccs1)C(C)C)C(C)(C)C)C(C)(C)c1ccccc1` : what is its Tubulin Polym. % inhibition at 0.3 uM with bovine microtubule-associated protein (MAP)-rich tubulin?
Response: 62%

Query: Record `CN[C@H](C(=O)N[C@H](C(=O)N(C)[C@H](/C=C(\C)C(=O)N1CCC[C@H]1C(=O)O)C(C)C)C(C)(C)C)C(C)(C)c1ccccc1` : what is its Tubulin Polym. % inhibition at 0.3 uM with bovine microtubule-associated protein (MAP)-rich tubulin?
Response: 97%

Query: Record `CN[C@H](C(=O)N[C@H](C(=O)N(C)[C@H](/C=C(\C)C(=O)c1ccccc1)C(C)C)C(C)(C)C)C(C)(C)c1ccccc1` : what is its Tubulin Polym. % inhibition at 0.3 uM with bovine microtubule-associated protein (MAP)-rich tubulin?
Response: 70%

Query: Record `CN[C@H](C(=O)N[C@H](C(=O)N(C)[C@H](/C=C(\C)CO)C(C)C)C(C)(C)C)C(C)(C)c1ccccc1` : what is its Tubulin Polym. % inhibition at 0.3 uM with bovine microtubule-associated protein (MAP)-rich tubulin?
Response: 71%

----------
- Test system: KB85
- METHOD NOTES: cells
- Type: cell-based
- DETAILS: 72 h, 3 days, SRB
EXPERIMENTAL ENDPOINT: pIC50
Answer as the number alone; pIC50 is minus log10 of concentration in mol/L.

CN[C@H](C(=O)N[C@H](C(=O)N(C)[C@H](/C=C/c1nnn[nH]1)C(C)C)C(C)(C)C)C(C)(C)c1ccccc1 [Example 86]: 5.74

Query: What does the data say about its pIC50? Entry: CN[C@H](C(=O)N[C@H](C(=O)N(C)[C@H](/C=C(\C)C(=O)N1CCC[C@H]1C(=O)OC)C(C)C)C(C)(C)C)C(C)(C)c1cc(C)cc(C)c1 [Example 19]
Response: 7.30

Query: What does the data say about its pIC50? Entry: CN[C@H](C(=O)N[C@H](C(=O)N(C)[C@H](/C=C(\C)C(=O)N1CCN(C)CC1)C(C)C)C(C)(C)C)C(C)(C)c1ccc(C)c(C)c1 [Example 7]
Response: 7.17

Query: What does the data say about its pIC50? Entry: CN[C@H](C(=O)N[C@H](C(=O)N(C)[C@H](/C=C(\C)C(=O)N1CCOCC1)C(C)C)C(C)(C)C)C(C)(C)c1ccccc1 [Example 27]
Response: 7.13

Query: What does the data say about its pIC50? Entry: CN[C@H](C(=O)N[C@H](C(=O)N(C)[C@H](/C=C(\C)C(=O)N1CCCC[C@H]1C(=O)O)C(C)C)C(C)(C)C)C(C)(C)c1ccccc1 [Example 50]
Response: 6.57

Query: What does the data say about its pIC50? Entry: CN[C@H](C(=O)N[C@H](C(=O)N(C)[C@H](/C=C(\C)C(=O)N1CCC[C@H]1C(=O)N1CCC[C@H]1C(=O)NCc1ccccc1)C(C)C)C(C)(C)C)C(C)(C)c1cc(C)cc(C)c1 [Example 11]
Response: 7.62

----------
Quick reference for IC50 among some compounds
- System: KB85
- METHOD NOTES: cells
- Type: cell-based
- DETAILS: 72 h, 3 days, SRB
*1 amine or outer side, *2 acyl side, *3 side chain or, on linkers, in order; H or OH if unused. Where a SMILES comes first, the peptide text is derived from it. [ ]: non-standard residue; d: D form. The star is where a group is joined. NMePhe(β,β-Me2) = CN[C@H](C(=O)O)C(C)(C)c1ccccc1; X1 = C/C(=C\[C@H](C(C)C)N(C)[*:1])C(=O)[*:2]; Tle = CC(C)(C)[C@H](N)C(=O)O; NMeV = CN[C@H](C(=O)O)C(C)C; NHBn = c1ccc(CN*)cc1
Give the value, in units of µM, as a plain number.

Recorded IC50, per entry:
CN[C@H](C(=O)N[C@H](C(=O)N(C)[C@H](/C=C(\C)C(=O)c1nccs1)C(C)C)C(C)(C)C)C(C)(C)c1ccccc1 [Example 73]: 0.565
CN[C@H](C(=O)N[C@H](C(=O)N(C)[C@H](/C=C(\C)C(=O)N1CCN(Cc2ccccc2)CC1)C(C)C)C(C)(C)C)C(C)(C)c1cccc(Cl)c1 [Example 16]: 0.06
C=CCC(C(=O)N[C@H](C(=O)N(C)[C@H](/C=C(\C)C(=O)O)C(C)C)C(C)(C)C)C(C)(C)c1ccccc1 (some centres unmarked) [Example 98]: 1.21
C/C(=C\[C@H](C(C)C)N(C)C(=O)[C@@H](NC(=O)[C@@H](C)C(C)(C)c1ccccc1)C(C)(C)C)C(=O)O [Example 92]: 0.99
C/C(=C\[C@H](C(C)C)N(C)C(=O)[C@@H](NC(=O)C1N(C)CCSC1(C)C)C(C)(C)C)C(=O)O (some centres unmarked) [Example 58]: 0.55
CN[C@H](C(=O)N[C@H](C(=O)N(C)[C@H](/C=C(\C)C(=O)N1CCN(C)CC1)C(C)C)C(C)(C)C)C(C)(C)c1cc(C)cc(C)c1 [Example 8]: 0.056
CN[C@H](C(=O)N[C@H](C(=O)N(C)[C@H](/C=C(\C)C(=O)N1CCN(C)CC1)C(C)C)C(C)(C)C)C(C)(C)c1cccc(C)c1.O=C(O)C(F)(F)F [Example 6, trifluoroacetic acid salt]: 0.123
CN[C@H](C(=O)N[C@H](C(=O)N(C)[C@H](/C=C(\C)C(=O)N1CCC[C@@H]1C(=O)N1CCC[C@@H]1C(=O)NCc1ccccc1)C(C)C)C(C)(C)C)C(C)(C)c1ccccc1 [Example 28] (H-[NMePhe(β,β-Me2)][Tle][X1][dP][dP]-NHBn): 0.0219
CN[C@H](C(=O)N[C@H](C(=O)N(C)[C@H](/C=C(\C)C(=O)N1CCOCC1)C(C)C)C(C)(C)C)C(C)(C)c1ccc(C)c(C)c1 [Example 2]: 0.062
CNC(C(=O)NC(C(=O)N(C)C(C=C(C)C=C(C)C(=O)O)C(C)C)C(C)(C)C)C(C)(C)c1ccccc1 (centres unmarked) [Example 79]: 0.053

Query: What does the data say about its IC50? Entry: CN[C@H](C(=O)N[C@H](C(=O)N(C)[C@H](/C=C(\C)C(=O)N(C)OC)C(C)C)C(C)(C)C)C(C)(C)c1ccccc1 [Example 52]
Response: 0.047

Query: What does the data say about its IC50? Entry: CN[C@H](C(=O)N[C@H](C(=O)N(C)[C@H](/C=C(\C)C(=O)N1CCN(C)CC1)C(C)C)C(C)(C)C)C(C)(C)c1ccccc1 [Example 26]
Response: 0.06

Query: What does the data say about its IC50? Entry: CN[C@H](C(=O)N[C@H](C(=O)N(C)[C@H](/C=C(\C)C(=O)O)C(C)C)C(C)(C)C)c1ccccc1 [Example 57]
Response: 2.61

Query: What does the data say about its IC50? Entry: CN[C@H](C(=O)N[C@H](C(=O)N(C)[C@H](/C=C(\C)C(=O)N1CCC[C@H]1[C@H](OC)[C@@H](C)C(=O)OC)C(C)C)C(C)(C)C)C(C)(C)c1ccccc1 [Example 30]
Response: 0.006

Query: What does the data say about its IC50? Entry: CN[C@H](C(=O)N[C@H](C(=O)N(C)[C@H](/C=C(\C)C(=O)O)C(C)C)C(C)(C)C)C1(C)CCCc2ccccc21 (some centres unmarked) [Example 59]
Response: 0.0066

Query: What does the data say about its IC50? Entry: C/C(=C\[C@H](C(C)C)N(C)C(=O)[C@@H](NC(=O)C(Cc1ccccc1)C(C)(C)c1ccccc1)C(C)(C)C)C(=O)O (some centres unmarked) [Example 96]
Response: 1.12

Query: What does the data say about its IC50? Entry: CN[C@H](C(=O)N[C@H](C(=O)N(C)[C@H](/C=C(\C)C(=O)N1CCN(Cc2ccccc2)CC1)C(C)C)C(C)(C)C)C(C)(C)c1cc(C)cc(C)c1 [Example 14]
Response: 0.135

Query: What does the data say about its IC50? Entry: CN[C@H](C(=O)N[C@H](C(=O)N(C)[C@H](C(=O)N1CCC[C@H]1C(=O)N1CCC[C@H]1C(=O)NCc1ccccc1)C(C)C)C(C)(C)C)C(C)(C)c1ccccc1 [Example 34] (H-[NMePhe(β,β-Me2)][Tle][NMeV]PP-NHBn)
Response: 0.0042
